# System: Mus musculus
# experiment_notes: Antiinflammatory activity in […] mouse assessed as inhibition of TPA-induced IL-6 mRNA expression in epidermis at 2 umol administered topically 30 mins prior to TPA challenge for twice weekly over 2 weeks measured 6 hrs post last TPA challenge by qRT-PCR analysis
# Type: functional, organism-based
The source made the active and inactive calls. No cut-off for these calls is given here.
Form entry, call: pick from active, inactive

item_smiles	class_name
CC1(C)CC[C@]2(C(=O)O)CC[C@]3(C)C(=CC[C@@H]4[C@@]5(C)C[C@@H](O)[C@H](O)C(C)(C)[C@@H]5CC[C@]43C)[C@@H]2C1	active
CC1(C)CC[C@]2(C(=O)O)CC[C@]3(C)C(=CC[C@@H]4[C@@]5(C)CC[C@H](O)C(C)(C)[C@@H]5CC[C@]43C)[C@@H]2C1	inactive
C[C@H]1[C@H](C)CC[C@]2(C(=O)O)CC[C@]3(C)C(=CC[C@@H]4[C@@]5(C)C[C@@H](O)[C@H](O)C(C)(C)[C@@H]5CC[C@]43C)[C@H]12	active

In: Returns: the outcome recorded for CC1(C)CC[C@]2(C(=O)O)CC[C@]3(C)C(=CC[C@@H]4[C@@]5(C)C[C@@H](O)[C@@H](O)C(C)(C)[C@@H]5CC[C@]43C)[C@@H]2C1 in this assay.
Out: inactive

In: Returns: the outcome recorded for C[C@H]1[C@H](C)CC[C@]2(C(=O)O)CC[C@]3(C)C(=CC[C@@H]4[C@@]5(C)CC[C@H](O)C(C)(C)[C@@H]5CC[C@]43C)[C@H]12 in this assay.
Out: inactive

In: Returns: the outcome recorded for C[C@H]1[C@H](C)CC[C@]2(C(=O)O)CC[C@]3(C)C(=CC[C@@H]4[C@@]5(C)C[C@@H](O)[C@@H](O)C(C)(C)[C@@H]5CC[C@]43C)[C@H]12 in this assay.
Out: active

---

# Tested on: Mus musculus
# experiment_notes: Antiinflammatory activity in […] mouse assessed as inhibition of TPA-induced IL-23 mRNA expression in epidermis at 2 umol administered topically 30 mins prior to TPA challenge for twice weekly over 2 weeks measured 6 hrs post last TPA challenge by qRT-PCR analysis
# Type: functional, organism-based
Calls of active or inactive are those of the source. No cut-off for these calls is given here.
Form entry, call: pick from active, inactive

Solved cases below.
item_smiles	measured_on	class_name
CC1(C)CC[C@]2(C(=O)O)CC[C@]3(C)C(=CC[C@@H]4[C@@]5(C)CC[C@H](O)C(C)(C)[C@@H]5CC[C@]43C)[C@@H]2C1	Mus musculus	inactive
CC1(C)CC[C@]2(C(=O)O)CC[C@]3(C)C(=CC[C@@H]4[C@@]5(C)C[C@@H](O)[C@@H](O)C(C)(C)[C@@H]5CC[C@]43C)[C@@H]2C1	Mus musculus	inactive

From here, focus on the item given below.
In: Returns: the outcome recorded for CC1(C)CC[C@]2(C(=O)O)CC[C@]3(C)C(=CC[C@@H]4[C@@]5(C)C[C@@H](O)[C@H](O)C(C)(C)[C@@H]5CC[C@]43C)[C@@H]2C1 in this assay.
Out: active

---

# System: Mus musculus
# experiment_notes: Antiinflammatory activity in […] mouse assessed as inhibition of TPA-induced IL-23 mRNA expression in epidermis at 2 umol administered topically 30 mins prior to TPA challenge for twice weekly over 2 weeks measured 6 hrs post last TPA challenge by qRT-PCR analysis
# Assay type: functional, organism-based
Active and inactive are the calls of the source. No cut-off for these calls is given here.
Form entry, call: pick from 1.0 for active, 0.0 for inactive

In: Returns: the outcome recorded for C[C@H]1[C@H](C)CC[C@]2(C(=O)O)CC[C@]3(C)C(=CC[C@@H]4[C@@]5(C)C[C@@H](O)[C@H](O)C(C)(C)[C@@H]5CC[C@]43C)[C@H]12 in this assay.
Out: 1.0

In: Returns: the outcome recorded for C[C@H]1[C@H](C)CC[C@]2(C(=O)O)CC[C@]3(C)C(=CC[C@@H]4[C@@]5(C)CC[C@H](O)C(C)(C)[C@@H]5CC[C@]43C)[C@H]12 in this assay.
Out: 0.0

In: Returns: the outcome recorded for C[C@H]1[C@H](C)CC[C@]2(C(=O)O)CC[C@]3(C)C(=CC[C@@H]4[C@@]5(C)C[C@@H](O)[C@@H](O)C(C)(C)[C@@H]5CC[C@]43C)[C@H]12 in this assay.
Out: 1.0

The origin of these recorded values is ChEMBL document CHEMBL3616450.
